Target: Kras and SOS1 (biotin-tagged human Kras loaded with GDP, His-tagged human SOS1) (Homo sapiens, UniProt P01116, G12D)
Construct: made in house; host or cells: E. coli (stated for Kras only)
Sequence (P01116 1-188 isoform P01116-2 G12D): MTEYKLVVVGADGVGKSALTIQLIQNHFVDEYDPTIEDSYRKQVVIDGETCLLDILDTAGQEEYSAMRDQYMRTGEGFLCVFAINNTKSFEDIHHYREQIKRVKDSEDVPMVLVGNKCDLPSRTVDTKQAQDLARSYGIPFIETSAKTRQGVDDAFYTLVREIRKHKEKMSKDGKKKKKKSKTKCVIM
Assay: Protein-protein interaction inhibition between Kras and SOS1 (KrasGl2D-SOS PPI) using AlphaScreen
Type: binding
Conditions: AlphaScreen; biotin-tagged human Kras loaded with GDP, His-tagged human SOS1; read-out: KRAS G12D-SOS PPI IC50
Positions of bridges follow the written chain, without caps; N, C: chain ends. Non-standard residues stand in square brackets, D forms with d. Residues, ends and D or L forms follow the SMILES beside them. *: point of attachment. hPhe(3-Cl-4-CF3) = N[C@@H](CCc1ccc(C(F)(F)F)c(Cl)c1)C(=O)O; NMePhe(4-Cl) = CN[C@@H](Cc1ccc(Cl)cc1)C(=O)O; NMeCha = CN[C@@H](CC1CCCCC1)C(=O)O; NMeChg = CN[C@H](C(=O)O)C1CCCCC1; NMeD = CN[C@@H](CC(=O)O)C(=O)O; NMeL = CN[C@@H](CC(C)C)C(=O)O; Chg = N[C@H](C(=O)O)C1CCCCC1; NMeV = CN[C@H](C(=O)O)C(C)C; d(β3hA) = C[C@@H](N)CC(=O)O; Ac6c = NC1(C(=O)O)CCCCC1; Piperidide = C1CCN(*)CC1; Ac5c = NC1(C(=O)O)CCCC1; Sar = CNCC(=O)O
ATTRIBUTE MEASURED: IC50 (nM)
Answers are plain numbers, in nM.

Provide the reported IC50 of each entry below, same order.
1. CC[C@H](C)[C@@H]1NC(=O)[C@H](CC(C)C)N(C)C(=O)C[C@@H](C(=O)N2CCCCC2)N(C)C(=O)[C@H](C2CCCCC2)NC(=O)C2(CCCC2)NC(=O)[C@@H]2CCCN2C(=O)[C@H](CCc2ccc(C(F)(F)F)c(Cl)c2)NC(=O)CN(C)C(=O)[C@H](CC2CCCCC2)N(C)C(=O)CN(C)C(=O)CN(C)C1=O [Compound 1354] ([NMeL]I[Sar][Sar][NMeCha][Sar][hPhe(3-Cl-4-CF3)]P[Ac5c][Chg][NMeD]-Piperidide; lactam N-11)
2. CC[C@H](C)[C@@H]1NC(=O)[C@H](CC(C)C)N(C)C(=O)C[C@@H](C)NC(=O)[C@H](C(C)C)N(C)C(=O)C2(CCCC2)NC(=O)[C@@H]2CCCN2C(=O)[C@H](CCc2ccc(C(F)(F)F)c(Cl)c2)NC(=O)CN(C)C(=O)[C@H](Cc2ccc(Cl)cc2)N(C)C(=O)CN(C)C(=O)CN(C)C1=O [Compound 121] (cyclo([Ac5c][NMeV][d(β3hA)][NMeL]I[Sar][Sar][NMePhe(4-Cl)][Sar][hPhe(3-Cl-4-CF3)]P))
3. CC[C@H](C)[C@@H]1NC(=O)[C@H](CC(C)C)N(C)C(=O)C[C@@H](C(=O)N2CCCCC2)N(C)C(=O)[C@H](C2CCCCC2)N(C)C(=O)C2(CCCCC2)NC(=O)[C@@H]2CCCN2C(=O)[C@H](CCc2ccc(C(F)(F)F)c(Cl)c2)NC(=O)CN(C)C(=O)[C@H](CC2CCCCC2)N(C)C(=O)CN(C)C(=O)CN(C)C1=O [Compound 1644] ([NMeL]I[Sar][Sar][NMeCha][Sar][hPhe(3-Cl-4-CF3)]P[Ac6c][NMeChg][NMeD]-Piperidide; lactam N-11)

Output:
1: 7.7; 2: 5.4; 3: 3.1
